FYI, the data here is from ChEMBL document CHEMBL5137119.

tested on: Escherichia coli; experiment: Antibacterial activity against Escherichia coli ATCC 25922 assessed as inhibition of bacterial growth incubated for 24 hrs by optical density based analysis; type: functional
assayMetric: MIC

{"compound": "CC1(C)C=Cc2c(cc(O)c3c(=O)c4c(oc23)-c2ccc(O)cc2OC(C(C)(C)O)C4)O1 (stereo unspecified)", "assayValue": "> 128 µg/mL"}
{"compound": "NC[C@H]1O[C@H](O[C@H]2[C@H](O)[C@@H](O[C@H]3O[C@H](CO)[C@@H](O)[C@H](N)[C@H]3O)[C@H](N)C[C@@H]2N)[C@H](O)[C@@H](O)[C@@H]1O", "assayValue": "16 µg/mL"}
{"compound": "CC1(C)S[C@@H]2[C@H](NC(=O)[C@H](N)c3ccccc3)C(=O)N2[C@H]1C(=O)O", "assayValue": "64 µg/mL"}
{"compound": "CC(C)=CCc1c(-c2ccc(O)cc2O)oc2cc3c(c(O)c2c1=O)C=CC(C)(C)O3", "assayValue": "> 128 µg/mL"}
{"compound": "COc1cc(O)c2c(=O)c3c(oc2c1)-c1ccc(O)cc1OC(C(C)(C)O)C3 (stereo unspecified)", "assayValue": "> 128 µg/mL"}
{"compound": "CC(C)=CCc1c(-c2ccc(O)cc2O)oc2c3c(cc(O)c2c1=O)OC(C)(C)C=C3", "assayValue": "> 128 µg/mL"}

* * *

tested on: Staphylococcus epidermidis; assay: Antibacterial activity against Staphylococcus epidermidis ATCC 51625 assessed as inhibition of bacterial growth incubated for 24 hrs by optical density based analysis; type: functional
Overview of reported MIC across a group of compounds:

{"compound": "CC1(C)S[C@@H]2[C@H](NC(=O)[C@H](N)c3ccccc3)C(=O)N2[C@H]1C(=O)O", "relationalOperator": "=", "MIC, µg/mL": 128}
{"compound": "COc1cc(O)c2c(=O)c3c(oc2c1)-c1ccc(O)cc1OC(C(C)(C)O)C3 (stereo unspecified)", "relationalOperator": ">", "MIC, µg/mL": 128}
{"compound": "CC(C)=CCc1c(-c2ccc(O)cc2O)oc2cc3c(c(O)c2c1=O)C=CC(C)(C)O3", "relationalOperator": "=", "MIC, µg/mL": 16}
{"compound": "CC1(C)C=Cc2c(cc(O)c3c(=O)c4c(oc23)-c2ccc(O)cc2OC(C(C)(C)O)C4)O1 (stereo unspecified)", "relationalOperator": ">", "MIC, µg/mL": 128}
{"compound": "CC(C)=CCc1c(-c2ccc(O)cc2O)oc2c3c(cc(O)c2c1=O)OC(C)(C)C=C3", "relationalOperator": "=", "MIC, µg/mL": 8}
{"compound": "NC[C@H]1O[C@H](O[C@H]2[C@H](O)[C@@H](O[C@H]3O[C@H](CO)[C@@H](O)[C@H](N)[C@H]3O)[C@H](N)C[C@@H]2N)[C@H](O)[C@@H](O)[C@@H]1O", "relationalOperator": "=", "MIC, µg/mL": 1}

* * *

system: Staphylococcus aureus; experiment: Antibacterial activity against Staphylococcus aureus ATCC 25923 assessed as inhibition of bacterial growth incubated for 24 hrs by optical density based analysis; type: functional
Overview of reported MIC across a group of compounds:
assayMetric: MIC

{"compound": "CC1(C)S[C@@H]2[C@H](NC(=O)[C@H](N)c3ccccc3)C(=O)N2[C@H]1C(=O)O [AMPICILLIN]", "assayValue": "4 µg/mL"}
{"compound": "CC(C)=CCc1c(-c2ccc(O)cc2O)oc2c3c(cc(O)c2c1=O)OC(C)(C)C=C3 [MORUSIN]", "assayValue": "8 µg/mL"}
{"compound": "CC(C)=CCc1c(-c2ccc(O)cc2O)oc2cc3c(c(O)c2c1=O)C=CC(C)(C)O3 [CUDRAFLAVONE B]", "assayValue": "4 µg/mL"}
{"compound": "NC[C@H]1O[C@H](O[C@H]2[C@H](O)[C@@H](O[C@H]3O[C@H](CO)[C@@H](O)[C@H](N)[C@H]3O)[C@H](N)C[C@@H]2N)[C@H](O)[C@@H](O)[C@@H]1O [KANAMYCIN]", "assayValue": "4 µg/mL"}
{"compound": "CC1(C)C=Cc2c(cc(O)c3c(=O)c4c(oc23)-c2ccc(O)cc2OC(C(C)(C)O)C4)O1 (stereo unspecified) [NEOCYCLOMORUSIN]", "assayValue": "64 µg/mL"}
{"compound": "COc1cc(O)c2c(=O)c3c(oc2c1)-c1ccc(O)cc1OC(C(C)(C)O)C3 (stereo unspecified)", "assayValue": "128 µg/mL"}

* * *

Overview of reported MIC across a group of compounds:
test system: Bacillus subtilis; test: Antibacterial activity against Bacillus subtilis ATCC 11774 assessed as inhibition of bacterial growth incubated for 24 hrs by optical density based analysis; type: functional

{"compound": "NC[C@H]1O[C@H](O[C@H]2[C@H](O)[C@@H](O[C@H]3O[C@H](CO)[C@@H](O)[C@H](N)[C@H]3O)[C@H](N)C[C@@H]2N)[C@H](O)[C@@H](O)[C@@H]1O", "relationalOperator": "=", "MIC [mg/L]": 2}
{"compound": "CC(C)=CCc1c(-c2ccc(O)cc2O)oc2c3c(cc(O)c2c1=O)OC(C)(C)C=C3", "relationalOperator": "=", "MIC [mg/L]": 16}
{"compound": "CC1(C)C=Cc2c(cc(O)c3c(=O)c4c(oc23)-c2ccc(O)cc2OC(C(C)(C)O)C4)O1 (stereo unspecified)", "relationalOperator": "=", "MIC [mg/L]": 64}
{"compound": "CC1(C)S[C@@H]2[C@H](NC(=O)[C@H](N)c3ccccc3)C(=O)N2[C@H]1C(=O)O", "relationalOperator": ">", "MIC [mg/L]": 128}
{"compound": "COc1cc(O)c2c(=O)c3c(oc2c1)-c1ccc(O)cc1OC(C(C)(C)O)C3 (stereo unspecified)", "relationalOperator": ">", "MIC [mg/L]": 128}
{"compound": "CC(C)=CCc1c(-c2ccc(O)cc2O)oc2cc3c(c(O)c2c1=O)C=CC(C)(C)O3", "relationalOperator": "=", "MIC [mg/L]": 16}
